Each recorded value in this set is attributed to patent US8575368B2.

target: lipase from porcine pancreas Type II (Sus scrofa, UniProt P00591)
Sequence (P00591 whole entry): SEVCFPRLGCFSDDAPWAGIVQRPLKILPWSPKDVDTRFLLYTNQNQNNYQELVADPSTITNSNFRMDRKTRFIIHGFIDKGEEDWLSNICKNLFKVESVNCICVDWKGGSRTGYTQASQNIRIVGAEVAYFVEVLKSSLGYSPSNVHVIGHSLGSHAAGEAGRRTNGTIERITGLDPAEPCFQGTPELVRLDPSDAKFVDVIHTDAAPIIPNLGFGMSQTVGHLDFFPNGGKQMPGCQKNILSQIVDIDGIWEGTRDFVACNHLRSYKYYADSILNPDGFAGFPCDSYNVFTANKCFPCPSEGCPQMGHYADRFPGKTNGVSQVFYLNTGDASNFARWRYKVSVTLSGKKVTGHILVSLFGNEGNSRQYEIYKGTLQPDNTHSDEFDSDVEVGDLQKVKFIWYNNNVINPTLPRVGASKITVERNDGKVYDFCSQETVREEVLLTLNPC
quantity_kind: pIC50
pIC50 here is simply -log10 of the concentration when that concentration is written in mol/L.

Exam item: Look up pIC50: O=C(/C=C/c1ccc(O)c(O)c1)O[C@@H]1C[C@](O)(C(=O)O)C[C@@H](O)[C@H]1O [Chlorogenic acid, chlorogenic acid]
Marked response: 3.66

----------
molecular target: lipase from Pseudomonas sp. (type XIII); assay: Bacterial lipase inhibitory activity test (4-methylumbelliferyl oleate fluorescence); format: biochemical; details: 0.1 μg/ml lipase solution
Where a name gives a salt, the structure may show the parent alone.
Please provide measured Activity of bacterial lipase inhibition (IC50) for the entries that follow.
Give the value in µg/mL but do not write µg/mL after it.

Exam item: Recorded Activity of bacterial lipase inhibition (IC50) for O=C(/C=C/c1ccc(O)c(O)c1)O[C@@H]1C[C@](O)(C(=O)O)C[C@@H](O)[C@H]1O , please?
Marked response: 69.2

Exam item: Now consider CN(C)[C@@H]1C(O)=C(C(N)=O)C(=O)[C@@]2(O)C(O)=C3C(=O)c4c(O)cccc4[C@@](C)(O)[C@H]3C[C@@H]12 [Tetracycline hydrochloride] and answer again.
Marked response: 134.6

Exam item: What do you get for O=C(O)C=Cc1ccc(O)c(O)c1 [3,4-Dihydroxycinnamic acid] ?
Marked response: 42.3

Exam item: Moving on to O.O=C(O)c1cc(O)c(O)c(O)c1 [Gallic acid monohydrate]
Marked response: 574.2
